# ASSAYED TARGET: T1, AXL on A431 cells (Homo sapiens, UniProt P30530)
# T1 construct: AXL-positive A431 cells were incubated; endogenous in cells; host or cells: A431
# EXPERIMENT SUMMARY: Antibody binding to A431 cells with or without Gas6 pre-incubation
# MEASUREMENT CONDITIONS: pre-incubation with 10 μg/mL Gas6
ATTRIBUTE MEASURED: Antibody binding to A431 cells: EC50 in presence of Gas6 mean (s.d.)

Q) Please report Antibody binding to A431 cells: EC50 in presence of Gas6 mean (s.d.) for the following molecule: IgG1-AXL-733: human IgG1,κ anti-AXL antibody, VH SEQ ID NO:34, VL SEQ ID NO:35; FN1 domain binding (antibody, V domains shown, homo sapiens) VH: QVQLVESGGGVVQPGRSLRLSCAASGFSFSTYAMHWVRQAPGKGLEWVAVISYDGDNKYSADSVKGRFTISRDNSKNTLYLQMNSLRAEDTAVYYCARGRKLGIDAFDIWGQGTMVTVSS VL: AIQLTQSPSSLSASVGDRVTITCRASQGISSALAWYQQKPGKAPKLLIYDASSLESGVPSRFSGSGSGTDFTLTISGLQPEDFATYYCQQFNSYPFTFGPGTKVDIK
A) 0.62 (0.23) μg/mL
